Molecular target: CIB1 and αIIb interaction (CIB1-GST : F-αIIb peptide) (Homo sapiens)
Construct: made in house; host or cells: BL-21 plus RIL cells (E. coli)
Sequence (Q99828 whole entry): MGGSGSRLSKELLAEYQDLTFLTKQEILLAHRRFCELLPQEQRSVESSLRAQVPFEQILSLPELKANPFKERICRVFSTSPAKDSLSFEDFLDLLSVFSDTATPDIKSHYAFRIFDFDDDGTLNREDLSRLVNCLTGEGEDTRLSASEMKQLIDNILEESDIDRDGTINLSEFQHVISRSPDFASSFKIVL
Experiment: FP assay, 1536-well qHTS format (primary and confirmatory screen)
Format: binding
Conditions: qHTS primary screen hits, Table S2; negative = inhibition
MEASUREMENT_KIND: Efficacy (%)
Quick reminder: number only, in %, skip the unit.

Request: Look up Efficacy (%): O=C(Nc1nc(-c2ccccc2)cs1)c1ccncc1NS(=O)(=O)c1ccccc1.O=C(O)C(F)(F)F
Response: -44

Request: Reported Efficacy (%), compound CCC(C)(C)C(=O)O[C@H]1C[C@@H](C)C=C2C=C[C@H](C)[C@H](CC[C@@H]3C[C@@H](O)CC(=O)O3)[C@H]21 : ____
Response: -17

Request: Which Efficacy (%) reading was recorded for the compound Cc1ccc(Cl)c(Nc2ccccc2C(=O)O)c1Cl ?
Response: -57

Request: Which Efficacy (%) is listed for COc1ccc(Nc2cc(C)nc(-n3nc(C)cc3C)n2)cc1Cl.O=C(O)C(F)(F)F ?
Response: -30

Request: Tell me the measured Efficacy (%) of CC[n+]1c(-c2ccccc2)c2cc(N)ccc2c2ccc(N)cc21.[Br-] , please.
Response: -61

Request: Can you look up the measured Efficacy (%) of Cc1ccc(-n2nc(C(C)(C)C)cc2NC(=O)Nc2ccc(OCCN3CCOCC3)c3ccccc23)cc1 for me?
Response: -32

Further cases:
Request: Any idea what its Efficacy (%) is? The compound is COC(=O)c1ccc2c(c1)S(=O)(=O)N=C2Sc1cc(C)ccc1C
Response: -49

Request: Quick check: Efficacy (%) of CCOC(=O)OC(C)OC(=O)c1csc(-n2nc(-c3ccc(F)c(F)c3)cc2O)n1.O=C(O)C(F)(F)F (centres unmarked) ?
Response: -35
